biological target: Leucine aminopeptidase (Plasmodium falciparum (isolate 3D7)) (UniProt Q8IL11); test: P. falciparum M17LAP inhibitors, primary screen, biochemical, fluorogenic H-Leu-NHMec substrate, 1536-well (AID 1619); settings: recombinant M17LAP, H-Leu-NHMec fluorogenic kinetic assay; at 30 µM; active compounds read high;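 also: plate controls were full reaction with DMSO carrier for no effect and no enzyme background for full effect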
Sequence (Q8IL11 whole entry, looked up): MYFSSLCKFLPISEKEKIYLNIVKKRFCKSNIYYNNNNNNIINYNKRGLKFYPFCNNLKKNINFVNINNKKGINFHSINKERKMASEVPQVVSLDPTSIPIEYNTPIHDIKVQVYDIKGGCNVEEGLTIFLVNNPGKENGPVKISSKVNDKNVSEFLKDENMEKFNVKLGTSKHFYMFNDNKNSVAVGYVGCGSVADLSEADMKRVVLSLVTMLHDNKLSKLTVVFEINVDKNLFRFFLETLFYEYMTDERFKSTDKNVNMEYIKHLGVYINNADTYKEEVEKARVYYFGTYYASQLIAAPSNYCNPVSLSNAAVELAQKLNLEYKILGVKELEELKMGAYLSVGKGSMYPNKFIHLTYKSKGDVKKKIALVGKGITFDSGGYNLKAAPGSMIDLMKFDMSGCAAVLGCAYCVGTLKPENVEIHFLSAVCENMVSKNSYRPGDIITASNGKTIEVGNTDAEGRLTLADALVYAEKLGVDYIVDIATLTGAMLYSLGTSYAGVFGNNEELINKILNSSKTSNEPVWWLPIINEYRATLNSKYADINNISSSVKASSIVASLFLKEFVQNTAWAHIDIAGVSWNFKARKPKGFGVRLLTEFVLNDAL
Among all 220,000 compounds or so, about 830 (0.38%) were called active. Only a sample is shown. Entries with a potency or affinity are not part of this list.
ASSAY ENDPOINT: inhibition (%)
Just the number in %, nothing appended.

[[record]]
line_notation = "COc1ccccc1NC(=S)NC(=O)c1c(-c2ccccc2Cl)noc1C"
test_system = "Leucine aminopeptidase (Plasmodium falciparum (isolate 3D7)) (UniProt Q8IL11)"
reported_value = -2.71

[[record]]
line_notation = "CN1CCC(=NNC(=O)C(=O)Nc2ccc(F)cc2)CC1"
test_system = "Leucine aminopeptidase (Plasmodium falciparum (isolate 3D7)) (UniProt Q8IL11)"
reported_value = 13.2

[[record]]
line_notation = "COc1ccc(-n2c(SCC(=O)N3CCOCC3)nc(O)c(Cc3ccccc3)c2=O)cc1"
test_system = "Leucine aminopeptidase (Plasmodium falciparum (isolate 3D7)) (UniProt Q8IL11)"
reported_value = 20.3

[[record]]
line_notation = "O=C(NNC(=O)c1cccc2ccccc12)c1ccc(-c2ccccc2)cc1"
test_system = "Leucine aminopeptidase (Plasmodium falciparum (isolate 3D7)) (UniProt Q8IL11)"
reported_value = -1.51

[[record]]
line_notation = "COc1ccc(Cc2c(O)nc(SC)n(C(C)=O)c2=O)cc1"
test_system = "Leucine aminopeptidase (Plasmodium falciparum (isolate 3D7)) (UniProt Q8IL11)"
reported_value = -1.99

[[record]]
line_notation = "CCOc1ccc(C(=O)NCC(=O)OCc2cc(C(C)=O)ccc2OC)cc1"
test_system = "Leucine aminopeptidase (Plasmodium falciparum (isolate 3D7)) (UniProt Q8IL11)"
reported_value = 3.31

[[record]]
line_notation = "COc1ccccc1/C=C(\\NC(=O)c1ccc(OC)c(OC)c1)C(=O)Nc1cccc([N+](=O)[O-])c1"
test_system = "Leucine aminopeptidase (Plasmodium falciparum (isolate 3D7)) (UniProt Q8IL11)"
reported_value = -33.9

[[record]]
line_notation = "COc1ccccc1NC(=O)CSc1nc(O)c(Cc2ccccc2)c(=O)[nH]1"
test_system = "Leucine aminopeptidase (Plasmodium falciparum (isolate 3D7)) (UniProt Q8IL11)"
reported_value = 35.1

[[record]]
line_notation = "Cc1ccc(S(=O)(=O)c2nc(C)c3c(n2)CCC3)cc1"
test_system = "Leucine aminopeptidase (Plasmodium falciparum (isolate 3D7)) (UniProt Q8IL11)"
reported_value = -1.17


As a next step, examine the molecule that follows.
Query string: Look at this molecule and give its reported inhibition. "COc1ccc(-c2noc(CSc3nc(N)c(-c4ccccc4)c(=O)[nH]3)n2)cc1OC"
Result string: -5.97

# credit: PubChem BioAssay AID1619
